test name: protein stability index of a GFP-peptide fusion (GPS, HEK-293T) (PSI 1-6); higher = more stable;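 further: 24-mer peptide tiles fused after GFP, lentivirally expressed, FACS-sorted into six equal bins by GFP/DsRed ratio, decoded by Illumina sequencing, PSI is the read-weighted mean bin number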
experimental context: treatment: DMSO; c terminus: a fixed tail appended
Each entry below carries its recorded protein stability index.

Completed entries (count: 6):
{"residue string": "AGGHLAVVELLLAHGADPTHRLKD [ANKRD17]", "value observed": 1.95}
{"residue string": "QIMFDVEMHTSRDHSSQSEEEVVE [BNIP3L]", "value observed": 5.33}
{"residue string": "GNGKNLVDFTFVENVVHGHILAAE [NSDHL]", "value observed": 3.08}
{"residue string": "SLSHINAYACLVCGKYFQGRGLKS [USP39]", "value observed": 2.14}
{"residue string": "HDGSSYLNSVERYDPKTNQWSSDV [KLHL20]", "value observed": 4.46}
{"residue string": "ISLALFVLPKPKVISCLEQGEEPW [ZNF75A]", "value observed": 3.21}

From here, focus on the item given below.
[Q] Form field: reported protein stability index of MPDTFNSRSPSVEGSLWAVGTESQ [PXN]
[A] 4.31

---

test name: protein stability index of a GFP-peptide fusion (GPS, HEK-293T) (PSI 1-6); higher = more stable
experimental context: treatment: MLN4924 1 uM, 8 h; c terminus: a fixed tail appended
readout kind: protein stability index
Field format: numeric only.

Example cases with answers are listed next.
{"residue string": "VSGDYYPIIYFNDYWNLQKDYYPI [CLPTM1]", "protein stability index": 3.1}
{"residue string": "ILSGHEHAVSTCHFCVDDTKLLSG [WDR88]", "protein stability index": 2.92}
{"residue string": "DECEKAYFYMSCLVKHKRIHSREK [ZNF649]", "protein stability index": 2.9}

[Q] Given the entry ELSKDAQASAAPAAPLPERNSLSA [SLC29A1] , report its measured protein stability index.
[A] 5.05

[Q] Then AAALDYEADGSTNNGIFQINSRRW [SPACA3] ?
[A] 3.76

[Q] Param item: PMMKAAMYSVEITVEKDKVTGETR [PALM]
[A] 4.29

[Q] Same again, this time with PCFKWYTSPWSECTKTCGVGVRMR [ADAMTSL2]
[A] 2.33

[Q] // query: QAINNAINYLGAESLRPLVQTPPG [IKZF1]
[A] 2.25

---

test name: protein stability index of a GFP-peptide fusion (GPS, HEK-293T) (PSI 1-6); higher = more stable
experimental context: treatment: MLN4924 1 uM, 8 h; c terminus: a fixed tail appended
Consider the following sequences and their measured protein stability index readings.

Take a look at these entries with their results.
{"residue string": "RKSLLVVHQRTHTGEKPHTCSECG [ZNF649]", "value observed": 3.95}
{"residue string": "LRGQVGGEINVEMDAAPGVDLSRI [KRT17]", "value observed": 3.92}

We now examine a further sequence.
[Q] Sample DKILALVPETIHDELQQSFQKSHN [PRIM1] — what was its protein stability index?
[A] 3.93

---

Below is a list of entries, each paired with its recorded protein stability index value.
test name: protein stability index of a GFP-peptide fusion (GPS, HEK-293T) (PSI 1-6); higher = more stable
experimental context: treatment: MLN4924 1 uM, 8 h; c terminus: a fixed tail appended

Examples with their reported protein stability index follow.
{"residue string": "VACSETAPDLVLNAEMVQQTTYLE [LOXL2]", "protein stability index": 4.5}
{"residue string": "YFTWDEVAQRSGCEERWLVIDRKV [FADS1]", "protein stability index": 2.82}
{"residue string": "RISHTLYDLDKIIELNGGQPPLTY [CRY1]", "protein stability index": 2.6}
{"residue string": "KIYDSPCLPEAEAMFAINADGVGD [RAD51]", "protein stability index": 4.65}
{"residue string": "MAHSKTRTNDGKITYPPGVKEISD [PDS5B]", "protein stability index": 4.61}
{"residue string": "SLKFFLNKPMLADVVFEIQGTTVP [RHOBTB3]", "protein stability index": 2.29}
{"residue string": "SRAESAPLPVSADDTPEVLNRALS [CDS2]", "protein stability index": 5.37}
{"residue string": "YFRHADPTWQNSIRHNLSLNKCFI [FOXJ1]", "protein stability index": 2.23}
{"residue string": "CLECGKSFCHGSSLKRHLKTHTGE [ZNF449]", "protein stability index": 5.27}
{"residue string": "YSSSRDGYGGSRDSYSSSRSDLYS [RBMX]", "protein stability index": 3.79}

[Q] Would you mind telling me what protein stability index value was observed for GSLYVFGGTTGYIYSTDLHKLDLN [KLHDC10] ?
[A] 2.66

[Q] Try this sequence too: QCKEWQVLMCGFPFLLLFLGNFFT [TMEM120A]
[A] 2.92

[Q] Next: QRTVGQLMELCRLYHRADVEKVLR [EDARADD]
[A] 2

[Q] What do you have for EDDDEEDTDKLLNSASDPSLKDGL [PSD2] ?
[A] 5.46

[Q] // repeat for LRFTSGLVVALDVDATLEHVQDPQ [INTS4] and report
[A] 2.43

---

test name: protein stability index of a GFP-peptide fusion (GPS, HEK-293T) (PSI 1-6); higher = more stable
experimental context: treatment: MLN4924 1 uM, 8 h; c terminus: a fixed tail appended
Classify as follows. Reported protein stability index greater than or equal to 3: TRUE. Reported protein stability index below: FALSE.

Would you please look over these solved cases?
{"residue string": "VATGSQQSLAQPLPGNTTEATPRS", "class": "TRUE"}
{"residue string": "EDDPLLDAQLLPHHSLQAHFRPRF [TMEM192]", "class": "TRUE"}
{"residue string": "SAVSTPSPVTRTRSLSACNKRVGM [DLC1]", "class": "TRUE"}
{"residue string": "HLESKDINQEELRALEEVEMKLQK [C10orf62]", "class": "TRUE"}
{"residue string": "LQGVPERLLGTAGTEEKKKLIRDF [VTI1B]", "class": "TRUE"}

[Q] Quick check, protein stability index >= 3? REKTNICYLSFPDSNSGCLGDTQF [DENND6A]
[A] FALSE

[Q] Please give the result for GCFRSQGASLRLAVEDGLQQFKQY [M1AP] too.
[A] FALSE

[Q] Moving on to KKRLQELALALKKCKPSLPAEAEG [TMEM120A]
[A] TRUE

[Q] # iterate: KENEMMKSHVMDQAINNAINYLGA [IKZF1]
[A] FALSE

[Q] Another sequence to check: GGGYSSVRYSDCCERVVINVSGLR [KCNA4]
[A] FALSE

---

protein stability index reference
test name: protein stability index of a GFP-peptide fusion (GPS, HEK-293T) (PSI 1-6); higher = more stable
experimental context: treatment: MLN4924 1 uM, 8 h; c terminus: a fixed tail appended
Give the figure only, with no unit attached.

Use the examples below as a reference point.
{"residue string": "SMDNTPHTPTPFKNALEKYGPLKP [MYBL2]", "value observed": 3.7}
{"residue string": "PVRDECEERNRFTETREEDVTDEH [FAM9B]", "value observed": 5.66}
{"residue string": "SPKRGTAPGDLSATEPATCFPSTQ [FBF1]", "value observed": 4.92}
{"residue string": "LCQKSNDISIHHFTCDEENVFAAV [WDR41]", "value observed": 2.91}
{"residue string": "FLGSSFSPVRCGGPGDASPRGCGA [WEE1]", "value observed": 2.61}

[Q] Please look up its protein stability index: GGPADLAGLEDEDVIIEVNGVNVL [PDZK1]
[A] 4.46

[Q] And VGKVEELIESEAPPKASEQETAKE [C18orf25] ?
[A] 5.6

[Q] Try this sequence too: KPARKRRRRSRKKPSGALGSESYK [EHMT1]
[A] 5.28

---

Listing: protein stability index of selected sequences
test name: protein stability index of a GFP-peptide fusion (GPS, HEK-293T) (PSI 1-6); higher = more stable
experimental context: treatment: DMSO; c terminus: a fixed tail appended
Respond numerically, and do not add a unit to the figure.

# annotated cases, reported protein stability index shown
{"residue string": "VILIFHCEFSSERGPRMCRFIRER [CDC25B]", "readout kind": "protein stability index", "value observed": 2.78}
{"residue string": "TDNSIKPQELLEWELVVLGKLKWN [CCND2]", "readout kind": "protein stability index", "value observed": 2.65}
{"residue string": "HLESKDINQEELRALEEVEMKLQK [C10orf62]", "readout kind": "protein stability index", "value observed": 5.31}
{"residue string": "RKLFGQESGPSAEKYSVATQLFIG [FUNDC2]", "readout kind": "protein stability index", "value observed": 2.61}
{"residue string": "ELAALLIERGASLEEVNDEGYTPL [ANKRD17]", "readout kind": "protein stability index", "value observed": 2.34}
{"residue string": "LINTIRVVCASYEDYGHWLLCLRA [PLEKHN1]", "readout kind": "protein stability index", "value observed": 2.76}
{"residue string": "HSMKPHPAITATLLDFMCRIIPNF [INTS3]", "readout kind": "protein stability index", "value observed": 2.96}
{"residue string": "RSSVELELERCRQQAGLLVTGEKE [PPEF2]", "readout kind": "protein stability index", "value observed": 4.74}

[Q] I'd like to know its protein stability index. The sequence in question is QRSYFLRIFDIKDGKLLWEQELYN [WASL]
[A] 2.21

[Q] Moving on to the next sequence: HTGEPLFSGSNEVDQMNRIVEVLG [DYRK1B]
[A] 3.59

// provenance: the supplement of paper PMC10567573
